Origin of measurements: PubChem BioAssay (NCI)

Consider the following molecules and their measured GI50 readings.
Test system: HOP-62 NSCLC
test-method-notes: NCI tumour cell line growth inhibition, 48 h

Value lookup for GI50; key = COc1ccc(CCNC(=O)c2ccc(NC3=C(Cl)C(=O)N(Cc4ccccc4)C3=O)cc2)cc1OC
45 µM

Value lookup for GI50; key = O[C@H](c1cc(C(F)(F)F)nc2c(C(F)(F)F)cccc12)[C@@H]1CCCCN1
4.73 µM

----------
Tested on: HT29 colon
test-method-notes: NCI tumour cell line growth inhibition, 48 h
observable: GI50

Value lookup for GI50; key = COCC1(CO)C(=O)C2CCN1CC2 (stereo not given)
28.1 µM

----------
Consider the following compounds and their measured TGI readings.
Tested on: TK-10 renal
test-method-notes: NCI tumour cell line growth inhibition, 48 h

Solved entries (count: 3):
> print(dat)
                                   compound  system.name  observable  value.observed
1  COc1ccc(NC(=O)N(C)CC2(O)CCC(C(C)(C)C)CC2)cc1 (centres undefined)  TK-10 renal         TGI        > 100 µM
2  O=C1C=CC(=O)c2c1ccc1c3ccccc3n(-c3cccc([N+](=O)[O-])c3)c21  TK-10 renal         TGI         4.47 µM
3         NCCSc1nc(-c2ccccc2)c(-c2ccccc2)o1  TK-10 renal         TGI        > 100 µM

Now let's try a different one.
Value lookup for TGI; key = COC(=O)[C@@H](C)C[C@H](Cc1ccccc1)NC(=O)c1csc([C@@H](C[C@H](C(C)C)N(C)C(=O)[C@@H](NC(=O)[C@H]2CCCCN2C)C2CCCCC2)OC(C)=O)n1
> 25 µM

----------
Test system: MOLT-4 leukemia
test-method-notes: NCI tumour cell line growth inhibition, 48 h
observable: GI50

Solved entries (count: 3):
> print(dat)
                                        smi  value.observed
1  CN(CCO)c1ccc(N2Cc3ccccc3OC3=C2C(=O)c2c(O)ccc(O)c2C3=O)cn1          135 nM
2  Cc1cc(C)c(NC(=O)c2sc3nc4c(cc3c2N)CN(Cc2ccccc2)CC4)c(C)c1         4150 nM
3  Cc1[nH]c(/C=C2\C(=O)Nc3ccccc32)c(C)c1CCC(=O)O        26500 nM

Form field: GI50 recorded for CCn1c(=O)c2c(=O)c3c4c(oc3oc2c2ccccc21)C(=O)c1ccccc1C4=O with MOLT-4 leukemia (enter value)
366 nM

Form field: GI50 recorded for CSc1ccc2c(c1)C(=O)c1c-2n(CCCBr)c(=O)c2cc([N+](=O)[O-])ccc12 with MOLT-4 leukemia (enter value)
558 nM

----------
Tested on: SW-620 colon
test-method-notes: NCI tumour cell line growth inhibition, 48 h
Consider the following molecules and their measured TGI readings.

Solved entries (count: 5):
molecule	observable	value-observed
O=CN1CCN(CC(O)CN2CCCCC2)CC1 (centres undefined)	TGI	> 100 µM
[N-]=[N+]=NC1C(O)C(CO)OC1n1ccc(=O)[nH]c1=O (centres undefined)	TGI	> 875 µM
COC(=O)[C@H](Cc1c[nH]c2ccccc12)NC(=O)c1ccc(CNC(=O)/C(C)=C/c2ccccc2)cc1	TGI	> 100 µM
CC1COC(C)(C)P(=O)(c2ccccc2)C1 (centres undefined)	TGI	> 100 µM
O=C(/C=C/c1ccccc1Cl)NC1C=Nc2ccc([N+](=O)[O-])cc2NC1 (centres undefined)	TGI	18.2 µM

Form field: TGI recorded for C/C(CC(=O)Nc1cccc(Cl)c1C)=N\NC(=O)c1ccncc1 with SW-620 colon (enter value)
> 100 µM

Form field: TGI recorded for Cc1cc(S(=O)(=O)O)c(NC(=O)C(=O)Cc2cc(=O)oc3cc(O)ccc23)cc1Cl with SW-620 colon (enter value)
> 100 µM

Form field: TGI recorded for CN[C@@H](C)[C@@H](NC)c1ccccc1 with SW-620 colon (enter value)
> 100 µM

Form field: TGI recorded for CC1CC[C@@]2(OC1)OC1C[C@H]3[C@@H]4CC[C@H]5CC(OC6OC(CO)C(O)C(OC7OC(CO)C(OC8OC(CO)C(O)C(OC9OC(CO)C(O)C(O)C9O)C8OC8OC(CO)C(O)C(O)C8O)C(O)C7O)C6O)[C@H](O)CC5(C)[C@H]4CCC3(C)C1[C@@H]2C (some centres undefined) with SW-620 colon (enter value)
8.32 µM
